Field: IC50. Provide a value for each of the molecules that follow.
System: Leishmania major
measurement notes: Antileishmanial activity against Leishmania major promastigotes incubated for 48 hrs by MTT assay
Assay type: functional, organism-based
Numbers only, in µM.

QUERY: Provide Leishmania major IC50 reading for COc1cccc2cc(C)cc(O)c12 .
RESULT: 50

Consider the record given below.
QUERY: Provide Leishmania major IC50 reading for COc1cc(C)cc2c1C(=O)C=C(C1=C(C)C(=O)c3ccc(O)c(OC)c3C1=O)C2=O .
RESULT: 0.053

###

measurement notes: Selectivity index, ratio of IC50 for mouse RAW264.7 cells to IC50 for Leishmania major promastigotes
Type: toxicity, cell-based
applied conditions: RAW264.7 cells versus Leishmania major promastigotes, read-out: Ratio IC50
Field: selectivity ratio. Provide a value for each of the molecules that follow.

Solved entries (count: 2):
QUERY: For the molecule COc1c(C)cc2cccc(OC)c2c1O , give its reported selectivity ratio.
RESULT: > 2.22

QUERY: For the molecule COc1cccc2cc(C)cc(O)c12 , give its reported selectivity ratio.
RESULT: > 2

Consider the record given below.
QUERY: For the molecule COc1ccc(OC)c2c(O)cc(C)cc12 , give its reported selectivity ratio.
RESULT: > 2.63
